biological target: BRD4 BD2 (Homo sapiens); assay: DSF thermal shift assay; assay type: binding; parameters: purchased in-house (SGC Frankfurt recombinant bromodomain DSF panel); conditions: 10 μM compound, 2 μM protein; read-out: DSF ΔTm BRD4 BD2
I would appreciate it if you labelled entries class 1 when ΔTm at 10 µM is 4 °C or higher, otherwise class 0.

Can Cn1cc(-c2ccc(C(=O)Nc3ccccc3N)nc2)c2cc[nH]c2c1=O be said to have ΔTm at 10 µM at or above 4 °C?
class 1

Entry to check: Cc1cc(/N=N/c2ccc(C(=O)Nc3ccccc3N)cc2)c2cc[nH]c2c1O
class 1

Entry to check: Cn1cc(C(=O)Nc2ccc(C(=O)Nc3ccccc3N)cc2)c2cc[nH]c2c1=O
class 0

Entry to check: Cn1cc(-c2ccc(C(=O)Nc3ccccc3N)cc2N)c2cc[nH]c2c1=O
class 0

Entry to check: COc1cc(C(=O)Nc2ccccc2N)ccc1-c1cn(C)c(=O)c2[nH]ccc12
class 1

====

Molecular target: BRD4 BD2 (Homo sapiens)
Assay: NanoBRET target engagement assay (HEK293T)
Type: cell-based
Parameters: BRD4 bromodomains and full-length HDACs were obtained as plasmids cloned in-frame with a terminal NanoLuc fusion; host or cells: HEK293T
Conditions: intact cells
Method: The assay was performed as described previously.[17],[59] In brief, BRD4 bromodomains and full-length HDACs were obtained as plasmids cloned in-frame with a terminal NanoLuc fusion (Promega). […] Serially diluted inhibitor and the corresponding NanoBRET Tracer (Promega) at a concentration determined previously as the tracer KD, app were pipetted into white 384-well plates (Greiner #781207) for BRD assays or white 96-well plates (Corning #3600) for HDAC using an Echo acoustic dispenser (Labcyte). […]
Would you mind sorting the entries by EC50 according to these classes? low = under 200 nM, intermediate = from 200 nM up to 300 nM, high = 300 nM and over

// return the class label for Cn1cc(-c2ccc(C(=O)Nc3cc(-c4cccs4)ccc3N)nc2)c2cc[nH]c2c1=O [NB514]
low

Entry to check: Cc1cc(/N=N/c2ccc(C(=O)Nc3ccccc3N)cc2)c2cc[nH]c2c1O [NB390]
low

Entry to check: Cn1cc(-c2ccc(C(=O)Nc3ccccc3N)nc2)c2cc[nH]c2c1=O [NB500]
low

Entry to check: Cn1cc(-c2ccc(C(=O)Nc3cc(-c4ccco4)ccc3N)nc2)c2cc[nH]c2c1=O [NB513]
high

Entry to check: Cn1cc(-c2ccc(C(=O)Nc3ccccc3N)cc2)c2cc[nH]c2c1=O [NB462]
low

Entry to check: Cn1cc(-c2ccc(C(=O)Nc3ccc(F)cc3N)nc2)c2cc[nH]c2c1=O [NB507]
low

Entry to check: Cn1cc(-c2ccc(C(=O)Nc3cc(-c4ccccc4)ccc3N)nc2)c2cc[nH]c2c1=O [NB512]
intermediate

Entry to check: COc1cc(C(=O)Nc2ccccc2N)ccc1-c1cn(C)c(=O)c2[nH]ccc12 [NB470]
intermediate

Entry to check: Cn1cc(-c2ccc(C(=O)Nc3ccccc3N)nn2)c2cc[nH]c2c1=O [NB501]
intermediate

Entry to check: Cn1cc(-c2ccc(C(=O)Nc3cc(-c4ccccc4)ccc3N)cc2)c2cc[nH]c2c1=O [NB503]
high

Entry to check: Cn1cc(C(=O)Nc2ccc(C(=O)Nc3ccccc3N)cc2)c2cc[nH]c2c1=O [NB480]
high

Entry to check: Cn1cc(-c2ccc(C(=O)Nc3ccccc3N)cc2N)c2cc[nH]c2c1=O [NB469]
high
